Here, each record is paired with measured IC50 data.
Tested on: Trypanosoma brucei brucei
Assay: Antiparasitic activity against bloodstream forms of Trypanosoma brucei brucei 93 after 72 hrs by resazurin assay
Type: functional, organism-based
Details: Trypanosoma brucei, 93, 72 h
# unit: µM | format: bare number

Before answering, review these 5 worked examples.
> print(dat)
                                   compound  unit.tag  assay.value
1  CSCCNC(=O)c1sc(SC(C)C)c(C#N)c1-c1ccc(Cl)cc1        µM          2.8
2  COC(=O)[C@H](CCSC)NC(=O)c1sc(SC(C)C)c(C#N)c1-c1ccc(Cl)cc1        µM           13
3  COC(=O)[C@@H](CCSC)NC(=O)c1sc(SC(C)C)c(C#N)c1-c1ccc(Cl)cc1        µM           15
4  CC(C)Sc1sc(C(=O)NC23CC4CC(CC(C4)C2)C3)c(-c2ccc(Cl)cc2)c1C#N        µM          8.3
5  CSCCNNC(=O)c1sc(SC(C)C)c(C#N)c1-c1ccc(Cl)cc1        µM          1.5

Value sought: IC50, system Trypanosoma brucei brucei, item `CCOC(=O)c1sc(SC(C)C)c(C#N)c1-c1ccc(Cl)cc1` . Result: 14

Value sought: IC50, system Trypanosoma brucei brucei, item `CC(C)Sc1sc(C(=O)Nc2cccc3ccccc23)c(-c2ccc(Cl)cc2)c1C#N` . Result: 6.4

---

Tested on: Plasmodium falciparum
Assay: Antiparasitic activity against chloroquine-resistant Plasmodium falciparum FcB1/Columbia after 24 hrs by [3H]hypoxanthine incorporation assay
Type: functional, organism-based
endpoint: IC50

Before answering, review these 2 worked examples.
> print(dat)
                                   molecule  assay.value
1  COC(=O)[C@H](CCSC)N(C)C(=O)c1sc(SC(C)C)c(C#N)c1-c1ccc(Cl)cc1      > 25 µM
2  COC(=O)[C@H](CCSC)NC(=O)c1sc(SC(C)C)c(C#N)c1-c1cc(O)c(O)c(O)c1      > 25 µM

For `CSCCNC(=O)c1sc(SC(C)C)c(C#N)c1-c1ccc(Cl)cc1` the molecule record lists IC50 as > 25 µM

For CCC(C)Sc1sc(C(=O)N[C@@H](CCSC)C(=O)OC)c(-c2ccc(Cl)cc2)c1C#N (some centres undefined) the molecule record lists IC50 as 20 µM

---

Here, each record is paired with measured IC50 data.
Target: Protein farnesyltransferase (Homo sapiens, UniProt P49354+P49356)
Assay: Inhibition of recombinant human FTase using dansylated peptide Dansyl-GCAIM as substrate by fluorescence-based assay
Assay type: protein-complex assay
Conditions: read-out: IC50
# unit: µM | format: bare number

Before answering, review these 5 worked examples.
> print(dat)
                               input.smiles  endpoint  assay.value
1  CSCC[C@H](NC(=S)c1sc(SC(C)C)c(C#N)c1-c1ccc(Cl)cc1)C(=O)O      IC50          1.7
2  COC(=O)[C@H](CCSC)NC(=O)c1sc(SC(C)C)c(C#N)c1-c1cccc(-c2ccccc2)c1      IC50           23
3  COC(=O)[C@H](CCSC)NC(=O)c1sc(SC(C)C)c(C#N)c1-c1ccc(O)c(O)c1      IC50          4.7
4  CSCC[C@H](NC(=O)c1sc(SC(C)C)c(C#N)c1-c1cc(O)c(O)c(O)c1)C(=O)O      IC50          8.7
5  CCOC(=O)CSCCNC(=O)c1sc(SC(C)C)c(C#N)c1-c1ccc(Cl)cc1      IC50          9.3

Could you now consider this next molecule?
For `COC(=O)[C@H](CCSC)NC(=O)c1sc(SC(C)C)c(C#N)c1-c1cc(O)c(O)c(O)c1` the molecule record lists IC50 as 5.6

---

Assay: Inhibition of partially purified recombinant Trypanosoma brucei protein farnesyltransferase by fluorescence-based assay
Details: read-out: IC50
endpoint: IC50 (µM)
# unit: µM | format: bare number

> print(dat)
                                   molecule  endpoint  assay.value
1  COC(=O)[C@H](CCSC)NC(=S)c1sc(SC(C)C)c(C#N)c1-c1ccc(Cl)cc1      IC50          8.2
2  CSCC[C@@H](NC(=O)c1sc(SC(C)C)c(C#N)c1-c1ccc(Cl)cc1)C(=O)O      IC50          1.4

For `CSCC[C@H](NC(=O)c1sc(SC(C)C)c(C#N)c1-c1cccc2c1oc1ccccc12)C(=O)O` the molecule record lists IC50 as 0.19

For `CSCC[C@H](NC(=O)c1sc(SC(C)C)c(C#N)c1-c1cc(O)c(O)c(O)c1)C(=O)O` the molecule record lists IC50 as 4.8

For CCC(C)Sc1sc(C(=O)N[C@@H](CCC(N)=O)C(=O)O)c(-c2ccc(Cl)cc2)c1C#N (some centres undefined) the molecule record lists IC50 as 1.2

For `COC(=O)[C@H](CCSC)NC(=O)c1sc(SC(C)C)c(C#N)c1-c1ccc(O)c(O)c1` the molecule record lists IC50 as 5.3

For `CC(C)Sc1sc(C(=O)NCCSCC(=O)O)c(-c2ccc(Cl)cc2)c1C#N` the molecule record lists IC50 as 8.9

---

System: Trypanosoma brucei brucei
Assay: Antiparasitic activity against bloodstream forms of Trypanosoma brucei brucei 93 after 72 hrs by resazurin assay
Type: functional, organism-based
Details: Trypanosoma brucei, 93, 72 h
pIC50: −log10 of the molar value.
Decide using pIC50: a value greater than or equal to 5 is t, a smaller one is f.

Look over these answered cases.
> print(dat)
                               input.smiles  class
1  CCOC(=O)CSCCNC(=O)c1sc(SC(C)C)c(C#N)c1-c1ccc(Cl)cc1      t
2  COC(=O)[C@H](CCSC)NC(=O)c1sc(SC(C)C)c(C#N)c1-c1cc(O)c(O)c(O)c1      f
3  COC(=O)[C@H](CCSC)NC(=O)c1sc(SC(C)C)c(C#N)c1-c1cccc(-c2ccccc2)c1      t
4  CCOC(=O)CN(CCSC)NC(=O)c1sc(SC(C)C)c(C#N)c1-c1ccc(Cl)cc1      t
5  COC(=O)[C@H](CCSC)NC(=O)c1sc(SC(C)C)c(C#N)c1-c1cccc2c1oc1ccccc12      f
6  COC(=O)[C@H](CCSC)NC(=O)c1sc(SC(C)C)c(C#N)c1-c1ccc(O)c(O)c1      t

In plain terms: is recorded pIC50 at least 5 for `CC(C)Sc1sc(C(=O)NCc2cccc3ccccc23)c(-c2ccc(Cl)cc2)c1C#N` ?
t

---

Test system: Plasmodium falciparum
Assay: Antiparasitic activity against chloroquine-resistant Plasmodium falciparum FcB1/Columbia after 24 hrs by [3H]hypoxanthine incorporation assay
Format: functional, organism-based
pIC50: −log10 of the molar value.
endpoint: pIC50

Before answering, review these 4 worked examples.
> print(dat)
                                   compound  endpoint  assay.value
1  CC(C)Sc1sc(C(=O)Nc2cccc3ccccc23)c(-c2ccc(Cl)cc2)c1C#N     pIC50       < 4.60
2  COC(=O)[C@H](CCSC)NC(=S)c1sc(SC(C)C)c(C#N)c1-c1ccc(Cl)cc1     pIC50       < 4.60
3  CSCCNNC(=O)c1sc(SC(C)C)c(C#N)c1-c1ccc(Cl)cc1     pIC50       < 4.60
4  CC(C)Sc1sc(C(=O)NC23CC4CC(CC(C4)C2)C3)c(-c2ccc(Cl)cc2)c1C#N     pIC50       < 4.60

For `CCOC(=O)c1sc(SC(C)C)c(C#N)c1-c1ccc(Cl)cc1` the compound record lists pIC50 as < 4.60

For `COC(=O)[C@H](CCSC)NC(=O)c1sc(SC(C)C)c(C#N)c1-c1cccc2c1oc1ccccc12` the compound record lists pIC50 as 4.70

For `CCOC(=O)CSCCNC(=O)c1sc(SC(C)C)c(C#N)c1-c1ccc(Cl)cc1` the compound record lists pIC50 as 4.64

For CCC(C)Sc1sc(C(=O)N[C@@H](CCC(N)=O)C(=O)OC(C)(C)C)c(-c2ccc(Cl)cc2)c1C#N (stereo not given in full) the compound record lists pIC50 as < 4.60

For `COC(=O)[C@H](CCSC)NC(=O)c1sc(SC(C)C)c(C#N)c1-c1ccc(Cl)cc1` the compound record lists pIC50 as < 4.60

For `COC(=O)[C@@H](CCSC)NC(=O)c1sc(SC(C)C)c(C#N)c1-c1ccc(Cl)cc1` the compound record lists pIC50 as < 4.60
